The values you see were collected from ChEMBL document CHEMBL1148345.

Items are presented alongside their recorded ED50.
- Test system: Enterococcus faecalis
- method: Effective dose of compound against Enterococcus faecalis (GC 6189) in mice
- Format: functional
A bare number is not enough; add the unit after it.

>>> observed_result("C[C@@H](c1ccccc1)C1NC(=O)CNC(=O)[C@H](CO)NC(=O)[C@@H]([C@@H](O)[C@@H]2CN=C(N)N2[C@H]2O[C@H](CO)[C@@H](O)[C@H](O)[C@@H]2O)NC(=O)[C@H]([C@@H](O)[C@@H]2CN=C(N)N2)NC(=O)[C@@H](Cc2ccc(O[C@H]3O[C@H](CO)[C@@H](O[C@H]4O[C@@H]5COC(c6ccccc6)O[C@H]5[C@H](O)[C@@H]4O)[C@H](O)[C@@H]3O)cc2)NC1=O (some centres not stated)")
"0.39 mg/kg"

# context switch: different molecule, same ED50
Complete the entry with ED50 for C[C@@H](c1ccccc1)C1NC(=O)CNC(=O)[C@H](CO)NC(=O)[C@@H]([C@@H](O)[C@@H]2CN=C(N)N2[C@H]2O[C@H](CO)[C@@H](O)[C@H](O)[C@@H]2O)NC(=O)[C@H]([C@@H](O)[C@@H]2CN=C(N)N2)NC(=O)[C@@H](Cc2ccc(O[C@H]3O[C@H](CO)[C@@H](O[C@H]4O[C@@H]5COC(C6CCCCC6)O[C@H]5[C@H](O)[C@@H]4O)[C@H](O)[C@@H]3O)cc2)NC1=O (some centres not stated)
0.19 mg/kg
